Consider the following compounds; for each one, report its MIC.
Test system: Acinetobacter baumannii
Experiment: Antibacterial activity against Carbapenem-resistant Acinetobacter baumannii clinical isolate incubated for 16 to 24 hrs by CLSI based broth microdilution method
Format: functional
Settings: time 16-24 hrs
Give bare numbers, in µg/mL.

INSERT INTO measurements (test_smiles, result) VALUES
  ('CN[C@H](CC(C)C)C(=O)N[C@H]1C(=O)N[C@@H](CC(N)=O)C(=O)N[C@H]2C(=O)N[C@H]3C(=O)N[C@H](C(=O)N[C@H](C(=O)O)c4cc(O)cc(O)c4-c4cc3ccc4O)[C@H](O)c3ccc(c(Cl)c3)Oc3cc2cc(c3O[C@@H]2O[C@H](CO)[C@@H](O)[C@H](O)[C@H]2O[C@H]2C[C@](C)(NCc3ccc(-c4ccc(CCN)cc4)cc3)[C@H](O)[C@H](C)O2)Oc2ccc(cc2Cl)[C@H]1O', 64),
  ('CC(C)C[C@@H](N)C(=O)N[C@H]1C(=O)N[C@@H](CC(N)=O)C(=O)N[C@H]2C(=O)N[C@H]3C(=O)N[C@H](C(=O)N[C@H](C(=O)NCc4ccc(CN)cc4)c4cc(O)cc(O)c4-c4cc3ccc4O)[C@H](O)c3ccc(c(Cl)c3)Oc3cc2cc(c3O[C@@H]2O[C@H](CO)[C@@H](O)[C@H](O)[C@H]2O[C@H]2C[C@](C)(N)[C@H](O)[C@H](C)O2)Oc2ccc(cc2Cl)[C@H]1O', 64);

Query compound follows.
Observed MIC on Acinetobacter baumannii, entry `CC(C)C[C@@H](N)C(=O)N[C@H]1C(=O)N[C@@H](CC(N)=O)C(=O)N[C@H]2C(=O)N[C@H]3C(=O)N[C@H](C(=O)N[C@H](C(=O)NCCCCCCNC(=N)N)c4cc(O)cc(O)c4-c4cc3ccc4O)[C@H](O)c3ccc(c(Cl)c3)Oc3cc2cc(c3O[C@@H]2O[C@H](CO)[C@@H](O)[C@H](O)[C@H]2O[C@H]2C[C@](C)(N)[C@H](O)[C@H](C)O2)Oc2ccc(cc2Cl)[C@H]1O` , equals 128
